tested on: MOLT-4 leukemia; experiment: NCI-60 one-dose screen, 48 h (100 = growth as untreated, 0 = no growth, -100 = all killed); details: 10 µM unless noted
Compounds without any hit were thinned out: in the full panel of roughly 83,000, 20% have a hit. Calls of active or inactive are those of the source. The calls were made as follows: active = growth percent below 10; inactive = the rest.
Assay readout: growth

Problem: What does the record list as growth for O=C(CN1CCN(c2cc3c(cc2F)c(=O)c(C(=O)O)cn3C2CC2)CC1)Nc1ccc(C(=O)/C=C/c2ccccc2)cc1 ?
Solution: 19% (inactive)

Problem: Quick check: growth of CCOC(=O)c1cc(/C(=N\O)c2cc(OC)c(OC)c(OC)c2)n2c(C)cccc12 ?
Solution: 28.5% (inactive)

Problem: Please look up its growth: O=C1NC(Cc2c[nH]c3ccccc23)C(=O)N1Cc1ccc(Cl)cc1 (stereo unspecified)
Solution: 85.4% (inactive)

Problem: Any idea what growth was measured for CC1Cc2c(N(C)C)ncnc2N(C)c2ccc(Cl)cc21 (stereo unspecified) ?
Solution: 28.2% (inactive)

Problem: Field request: growth | item: CN1CCN(CCCOc2ccc3nc(Nc4ccc(C(F)(F)F)c(Cl)c4)ccc3c2)CC1
Solution: -35.7% (active)

Problem: Recorded growth of CC(C)C[C@H](NC(=O)[C@@H](Cc1ccccc1)n1ccc(Nc2ccccc2)cc1=O)B(O)O , please.
Solution: -8.47% (active)

Problem: Which growth value belongs to COc1ccc(NC(=O)CSc2nc3ccccc3c(=O)n2Cc2cc(OC)c(OC)c(OC)c2)cc1 ?
Solution: 68.8% (inactive)

Problem: Would you mind telling me what growth value was observed for COC(=O)c1ccc2nc(-c3cc4ccccc4n3C)n(CCCCOc3cc4c(cc3OC)C(=O)N3CCC[C@H]3C=N4)c2c1 ?
Solution: 3.44% (active)

Problem: Would you mind telling me what growth value was observed for COc1cc(/C=C/C(=O)c2ccc(NC(=O)CN3CCN(c4cc5c(cc4F)c(=O)c(C(=O)O)cn5C4CC4)CC3)cc2)cc(OC)c1OC ?
Solution: -1.1% (active)

Problem: # query: growth of entry O=C(c1c[nH]c2ccccc12)C(Sc1nc2ccccc2c(=O)[nH]1)c1ccccc1 (stereo unspecified)
Solution: 99.8% (inactive)

Problem: Given the compound O=C1OC(c2ccccc2)=N/C1=C\c1ccc([N+](=O)[O-])cc1 , what is its reported growth?
Solution: 102% (inactive)

Problem: // growth lookup, key: COc1ccc(/C=C/C(=O)c2cc(OC)c(OC)c(OC)c2)cc1OCc1cn(Cc2ccc(F)cc2)nn1
Solution: 58.1% (inactive)

Problem: Look up growth: C=CCn1c(C)nc2ccc(Nc3nc(Nc4ccc(F)cc4)nc4ccccc34)cc21
Solution: -5.55% (active)

Problem: What value of measured growth is listed for CC(=O)OCC1OC(OCC2OC(OC(C)=O)C(OC(C)=O)C(OC(C)=O)C2OC(C)=O)C(OC(C)=O)C(OC(C)=O)C1OC(C)=O (stereo unspecified) ?
Solution: 104% (inactive)

Problem: What value of growth has been reported for the following compound? COc1ccc(C2NC3=C(CCCC3)C(C#N)(C#N)C2(C#N)C#N)cc1 (stereo unspecified)
Solution: 9.29% (active)

Problem: Please report the recorded growth for O=S(=O)(NCCCNc1cc(-c2cn(-c3ccccc3)nc2-c2cccc(O)c2)ccn1)c1ccc(Cl)cc1 .
Solution: 4.49% (active)

Problem: Field request: growth | item: CC(=O)Nc1ccc2c(c1)/C(=C\C=C/c1ccc([N+](C)(C)C)cc1)c1ccccc1-2
Solution: 63.6% (inactive)

Problem: Fill blank: measured growth of the compound COc1cc(C2C=C(C)N=C3SC(C)=NN32)cc(OC)c1OC (stereo unspecified) is ____.
Solution: 92.8% (inactive)

Problem: Consider the compound CC[C@]1(O)C[C@@H]2CN(Cc3c([nH]c4ccccc34)[C@@](C(=O)OC)(c3cc4c(cc3OC)N(C)[C@H]3[C@@](O)(C(=O)OC)[C@H](OC(C)=O)[C@]5(CC)[C@@H]6C[C@@H]6CN6CC[C@]43[C@@H]65)C2)C1 and give its measured growth.
Solution: 1.8% (active)

Problem: Item Cc1ccccc1C(=O)c1ccccc1C(=O)O has what recorded growth?
Solution: 99.5% (inactive)

Problem: Any idea what its growth is? The compound is NC(CC(N)C(=O)O)C(=O)O (stereo unspecified)
Solution: 107% (inactive)

Problem: I'd like to know its growth. The compound in question is Cc1ccc2nc(SCn3nnc4ccccc4c3=O)[nH]c2c1
Solution: 71.2% (inactive)

Problem: For COc1ccc(N=C2NN=C(c3ccc(F)cc3)CS2)cc1OC , what is its reported growth?
Solution: 73.4% (inactive)

Problem: Query: growth; subject: COc1cc2nc(SCc3cc(OC)c(OC)c(OC)c3)n(Cc3ccccc3)c(=O)c2cc1OC
Solution: 16.7% (inactive)

Problem: So what does the record say about growth for COc1ncc(-c2ccc3ncnc(Nc4cccc(Cl)c4)c3c2)cc1NS(=O)(=O)CCN1CCOCC1 ?
Solution: 2.58% (active)

Problem: Requested read-out: growth. Entry: Cc1ccc(C2=NN(c3ccc(S(N)(=O)=O)cc3)C(c3cn(-c4ccccc4)nc3-c3ccccc3)C2)cc1 (stereo unspecified)
Solution: 18.7% (inactive)

Problem: I am curious: what growth value has been reported for COc1cc(NC(=O)c2cc3ccccc3nc2Nc2ccc(F)cc2)cc(OC)c1OC ?
Solution: 12.4% (inactive)

Problem: I would be grateful if you could share the reported growth for CC(=O)N1Cc2ccccc2C(C)Cc2cc(Cl)ccc21 (stereo unspecified) .
Solution: 97% (inactive)

Problem: Reported growth, compound COc1cc(Br)c(OC)cc1Br : ____
Solution: 98.3% (inactive)

Problem: Reported growth, compound CC(=O)/C=C/c1cc2cc(Cl)ccc2[nH]c1=O : ____
Solution: 87.1% (inactive)

Problem: Fill blank: measured growth of the compound Cc1oc2nc[nH]c(=O)c2c1C(=O)/C=C/c1ccc(Cl)cc1 is ____.
Solution: 40.7% (inactive)

Problem: Sample CC(C)(C)OC(=O)N[C@@H](Cc1ccccc1)C(=O)N(Cc1ccccc1)C1(C(=O)NCc2ccccc2)CCN(Cc2ccccc2)CC1 — what was its growth?
Solution: 7.74% (active)

Problem: Entry CCCCC(N)(C(=O)O)C1CCCC1 (stereo unspecified) : reported growth = ?
Solution: 123% (inactive)

Problem: Consider the compound shown here: COc1ccc(-c2nnc(COc3ccc(NC(=O)Nc4ccc(Cl)c(C(F)(F)F)c4)cc3F)o2)cc1 What is its recorded growth?
Solution: 2.69% (active)

Problem: # growth lookup, item COc1cc(-n2nc(C(=O)Nc3ccc(C(=O)O)cc3)nc2-c2ccccc2)cc(OC)c1OC
Solution: 95.8% (inactive)

Problem: // query growth value for entry CC[C@H](C)[C@H]1NC(=O)[C@@H](N[C@](C)(O)[C@@H](N)CC(C)C)[C@@H](C)OC(=O)[C@H](Cc2ccc(OC)cc2)N(C)C(=O)[C@@H]2CCCN2C(=O)[C@H](CC(C)C)NC(=O)[C@@H](C)C(=O)[C@H](C(C)C)OC(=O)C[C@@H]1O
Solution: -24.8% (active)
